Below, each of the molecules is paired with its reported log10 IC50 value.
Tested Target: recombinant human Meningioma Expressed Antigen 5 (MGEA5), also referred to as O-GlcNAcase (OGA) (Homo sapiens, UniProt O60502)
Construct: Full length OGA enzyme was purchased at OriGene (cat # TP322411); purchased OriGene TP322411
Sequence (O60502 whole entry): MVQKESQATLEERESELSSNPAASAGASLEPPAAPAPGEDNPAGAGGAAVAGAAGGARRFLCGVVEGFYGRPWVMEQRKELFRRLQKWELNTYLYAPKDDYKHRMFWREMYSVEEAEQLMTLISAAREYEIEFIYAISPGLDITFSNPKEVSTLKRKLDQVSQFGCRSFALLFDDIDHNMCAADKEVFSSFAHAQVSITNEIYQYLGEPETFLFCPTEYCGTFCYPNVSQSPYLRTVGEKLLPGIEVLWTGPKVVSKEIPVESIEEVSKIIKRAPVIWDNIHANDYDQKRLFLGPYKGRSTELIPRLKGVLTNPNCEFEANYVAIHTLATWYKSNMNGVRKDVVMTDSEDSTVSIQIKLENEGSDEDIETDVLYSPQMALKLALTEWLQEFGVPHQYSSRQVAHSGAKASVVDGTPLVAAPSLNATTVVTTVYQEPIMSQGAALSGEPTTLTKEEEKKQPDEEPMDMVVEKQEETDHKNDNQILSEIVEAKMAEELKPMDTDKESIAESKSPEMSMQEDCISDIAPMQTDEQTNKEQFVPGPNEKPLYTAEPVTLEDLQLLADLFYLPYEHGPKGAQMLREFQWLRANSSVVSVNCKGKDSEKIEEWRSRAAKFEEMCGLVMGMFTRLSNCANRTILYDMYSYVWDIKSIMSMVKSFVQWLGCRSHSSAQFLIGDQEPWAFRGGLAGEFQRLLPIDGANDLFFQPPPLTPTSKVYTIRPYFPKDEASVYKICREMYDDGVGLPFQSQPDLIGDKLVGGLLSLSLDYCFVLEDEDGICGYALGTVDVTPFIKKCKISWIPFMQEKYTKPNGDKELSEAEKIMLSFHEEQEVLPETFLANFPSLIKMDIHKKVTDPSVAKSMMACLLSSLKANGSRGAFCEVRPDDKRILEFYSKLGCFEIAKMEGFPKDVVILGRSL
Measurement Protocol: OGA biochemical assay: inhibition of FM-GlcNAc hydrolysis, fluorescence; protocol A (10 nM OGA, 1 h) or protocol B (2 nM OGA, 6 h)
Test Context: Enzymatic protocol B (2 nM OGA, 6 h); read-out: Enzymatic hOGA; pIC50 (converted)
Value Type: log10 IC50 (log10 of the value in nM)

Molecule: CC(=O)Nc1ncc(CN2CC[C@H](Cc3cccc4nccn34)C2)s1 [Product 107]
log10 IC50: 0.91

Molecule: CC(=O)Nc1ncc(CN2CCC[C@H](c3ccnc4ccn(C)c34)C2)s1 (single isomer, unassigned) [Product 71]
log10 IC50: 1.10

Molecule: CC(=O)Nc1ncc(CN2CCC(Cc3cnc4cc[nH]c4c3)C2)s1 (centres unmarked) [Product 68]
log10 IC50: 0.73

Molecule: CC(=O)Nc1ncc(CN2CCCC(Cc3cncc4nccn34)C2)s1 (centres unmarked) [Product 45]
log10 IC50: 0.67

Molecule: CC(=O)Nc1ncc(CN2CCCC(c3nc(C)cc4ccn(C)c34)C2)s1 (centres unmarked) [Product 88]
log10 IC50: 1.92

Molecule: CC(=O)Nc1ncc(CN2CCCC(c3nc(C)cc4cc[nH]c34)C2)s1 (centres unmarked) [Product 91]
log10 IC50: 1.98

Molecule: CC(c1ccc2c(c1)OCO2)N1CCC(Cc2cccc3nccn23)C1 (centres unmarked) [Product 67]
log10 IC50: 2.01

Molecule: CC(=O)Nc1ncc(CN2CCC(c3c(F)c(C)nc4ncnn34)C2)s1 (centres unmarked) [Product 19]
log10 IC50: 2.31

Molecule: CC(=O)Nc1ncc(CN2CCOC(c3ccnc4ncnn34)C2)s1 (centres unmarked) [Product 36]
log10 IC50: 2.87

Molecule: CC(=O)Nc1ncc(CN2C[C@@H](c3cc(C)nc4ncnn34)C[C@@H](C(F)(F)F)C2)s1 (mixture of isomers) [Product 84]
log10 IC50: 3.17

Molecule: c1cc(CC2CCN(Cc3ccc4nccnc4c3)C2)n2ccnc2c1 (centres unmarked) [Product 58]
log10 IC50: 2.39

Molecule: CC(=O)Nc1ncc(S(=O)(=O)N2CCOC(c3cc(C)nc4ncnn34)C2)s1 (racemic) [Product 28]
log10 IC50: 0.93

Molecule: CC(=O)Nc1ncc(CN2CCCC(c3ccnc4cc[nH]c34)C2)s1 (racemic) [Product 15]
log10 IC50: 1.57

Molecule: CC(c1ccc2c(c1)OCO2)N1CCOC(c2ccnc3ncnn23)C1 (centres unmarked) [Product 55]
log10 IC50: 3.98

Molecule: CC(=O)Nc1ncc(CN2CCCC(c3ccc4c(ccn4C)n3)C2)s1 (centres unmarked) [Product 100]
log10 IC50: 2.49

Molecule: CC(=O)Nc1ncc(CN2CCC(c3cc(C)nc4ccnn34)C2)s1 (centres unmarked) [Product 21]
log10 IC50: 2.61

Molecule: CC(=O)Nc1ncc(CN2CCOC(c3cc(C(F)(F)F)nc4ncnn34)C2)s1 (centres unmarked) [Product 37]
log10 IC50: 3.43

Molecule: CC(=O)Nc1ncc(CN2CCCC(c3cc4ccn(C)c4nc3C)C2)s1 (centres unmarked) [Product 101]
log10 IC50: 0.82

Molecule: CC(=O)Nc1ncc(CN2CCC(c3cc(C(F)(F)F)nc4ncnn34)C2)s1 (centres unmarked) [Product 20]
log10 IC50: 2.78

Molecule: CC(=O)Nc1ncc(CN2CCCC(Cc3c(F)c(C)nc4ncnn34)C2)s1 (centres unmarked) [Product 47]
log10 IC50: 0.10

Molecule: CC(=O)Nc1ncc(CN2CCCC(Cc3cc(C)nc4ncnn34)C2)s1 (centres unmarked) [Product 46]
log10 IC50: 0.37

Molecule: CC(=O)Nc1ncc(CN2CCCC(c3ccnc4nccn34)C2)s1 (racemic) [Product 10]
log10 IC50: 1.55

Molecule: CC(=O)Nc1ncc(CN2CCC(Cc3cnc4ccn(C)c4c3)C2)s1 (centres unmarked) [Product 69]
log10 IC50: 0.48

Molecule: CC(=O)Nc1ncc(CN2CCCC(c3ccc4ccn(C)c4n3)C2)s1 (centres unmarked) [Product 73]
log10 IC50: 1.91

Molecule: CC(=O)Nc1ncc(CN2CCCC(Cc3cnc4cc[nH]c4c3)C2)s1 (centres unmarked) [Product 97]
log10 IC50: 0.24

Molecule: CC(=O)Nc1ncc(CN2CCC(Cc3cccc4nccn34)C2)s1 (centres unmarked) [Product 50]
log10 IC50: 0.97

Molecule: CC(=O)Nc1ncc(CN2CCNC(c3cc(C)nc4ncnn34)C2)s1 (centres unmarked) [Product 42]
log10 IC50: 2.64

Molecule: CC(=O)Nc1ncc(CN2CC[C@H](C)[C@@H](c3cc(C(F)F)nc4ncnn34)C2)s1 [Product 16]
log10 IC50: 2.98

Molecule: CC(=O)Nc1ncc(CN2CCCC(Cc3cccc4nccn34)C2)s1 (centres unmarked) [Product 66]
log10 IC50: 1.47

Molecule: Cc1cc(C2CN(C(C)c3ccc4c(c3)OCO4)CCO2)n2ncnc2n1 (centres unmarked) [Product 53]
log10 IC50: 3.81

The values you see were collected from patent US20200157092A1.
